Data origin: patent CN114591431A

Biological target: T1, 重组人GAS6 his 蛋白(Novoprotein，Cat#C01W) (human, UniProt Q14393 31-678, limits assumed)
T1 construct: Bought protein; not shown: His tag
T1 sequence (looked up): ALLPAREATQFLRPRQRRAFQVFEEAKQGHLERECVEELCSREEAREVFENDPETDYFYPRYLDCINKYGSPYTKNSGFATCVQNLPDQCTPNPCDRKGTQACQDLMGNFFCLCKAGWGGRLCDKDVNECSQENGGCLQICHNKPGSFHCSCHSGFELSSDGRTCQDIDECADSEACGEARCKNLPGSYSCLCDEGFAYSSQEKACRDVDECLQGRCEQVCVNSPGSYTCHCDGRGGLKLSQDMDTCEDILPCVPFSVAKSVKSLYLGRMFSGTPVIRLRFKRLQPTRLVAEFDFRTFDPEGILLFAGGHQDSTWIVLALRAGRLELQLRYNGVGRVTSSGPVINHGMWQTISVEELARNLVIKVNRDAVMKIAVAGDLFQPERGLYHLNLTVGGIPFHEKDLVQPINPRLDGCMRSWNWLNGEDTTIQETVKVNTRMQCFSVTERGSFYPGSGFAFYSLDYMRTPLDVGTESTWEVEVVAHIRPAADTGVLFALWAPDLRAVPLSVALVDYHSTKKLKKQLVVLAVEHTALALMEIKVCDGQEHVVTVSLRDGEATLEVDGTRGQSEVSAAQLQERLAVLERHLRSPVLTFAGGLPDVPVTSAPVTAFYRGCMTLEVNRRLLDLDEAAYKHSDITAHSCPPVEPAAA
Assay: ELISA, coated human GAS6 his 0.5 ug/ml
measured_parameter: pEC50
Recall that pEC50 is obtained by taking minus log10 of the concentration measured in molar.

Fill in: pEC50 of ch2D3C6 (antibody, human IgG1, kappa, V domains shown, Human-mouse chimeric antibody, mouse VH/VL cloned into pTT5_hIgG1.G1m3 / pTT5_hKappa.Km3, made in HEK293; also called ch2D3C6-IgG) VH: DIQLQESGPGLVKPSQSLSLTCSVTGYSITNGYYWNWIRQFPGNKLEWMGYISYDGTNNYNPSLKNRISITRDTSKNQFFLKLNSVTTEDTATYYCARRALWYYAMDYWGQGTSVTVSS VL: DIVMTQSPASLAVSLGQRATISCKASQSVDYDGESYMNWYQQKPGQPPKLLIYVASNLESGIPARFSGSGSGTDFTLNIHPVEEEDAATYYCQQSDEDPYTFGGGTKLEIKR is ___ 9.72
